Catalogue of IC50, 0.1 nM PACAP27-induced PAC1-R mediated cAMP increase readings, one per entry.
Target desc: T1, human PACAP27 (human, C-terminal leucine is amidated; 125I-labelled in Example 10)
T1 peptide: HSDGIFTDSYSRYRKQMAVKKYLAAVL
Assay details: cell-based or functional assay
In your response, the unit should come after the numeric value.

Some solved cases for reference:
Binder	Endpoint value
anti-PACAP antibody Ab5 (antibody, human IgG1, kappa, N297A, V domains shown, full-length rabbit/human chimeric antibody) VH: QSVEESGGRLVTPGTPLTLTCTVSGFSLSSYAMIWVRQAPGKGLEWIGIIYDNGDTYYASWAKGRFTISKTSTTVYLKIASPTTEDTATYFCAREPGSTTQNDLWGQGTLVTVSS VL: DVVMTQTPASVSEPVGGTVTIKCQASENIYNSLLWYQQKPGQPPKLLIYRASTLASGVSSRFKGSGSGTEFTLTISDLECADAATYYCQNYYNIWTNGAAFGGGTEVVVKR	0.353 nM
anti-PACAP antibody Ab9.H (antibody, human IgG1, kappa, N297A, V domains shown, humanized form of Ab9, full length) VH: EVQLVESGGGLVQPGGSLRLSCAASGFTVSRDYWICWVRQAPGKGLEWIGCISAGGGSTDYANWVNGRFTISRDISKNTGYLQMNSLRAEDTAVYYCAGNLEIWGQGTLVTVSS VL: DIQMTQSPSTLSASVGDRVTITCQSSPSIYSGAFLSWYQQKPGKAPKFLIYEASKLASGVPSRFSGSGSGTEFTLTISSLQPDDFATYYCLGFYDCSSVDCHAFGGGTKVEIKR	0.271 nM
anti-PACAP antibody Ab1 (antibody, human IgG1, kappa, N297A, V domains shown, full-length rabbit/human chimeric antibody) VH: QSVEESGGRLVTPGTPLTLTCTVSGFSLSSAVMNWVRQAPGKGLEWIGSIVASGTTYYASWANGRFTISKTSSTTMDLKMTSPTTEDTATYFCARGGGEFFIWGPGTLVTVSS VL: DPVMTQTPSSTSAAVGGTVTISCQSSESVYSNYLSWYQQKPGQPPNFLIYQASNLASGVPSRFKGSGSGTQFTLTITDLECDDAATYYCAGGYSENIVGFGGGTEVVVKR	0.0729 nM

Exercise: Form field: reported IC50, 0.1 nM PACAP27-induced PAC1-R mediated cAMP increase of anti-PACAP antibody Ab14 (antibody, human IgG1, kappa, N297A, V domains shown, full-length rabbit/human chimeric antibody) VH: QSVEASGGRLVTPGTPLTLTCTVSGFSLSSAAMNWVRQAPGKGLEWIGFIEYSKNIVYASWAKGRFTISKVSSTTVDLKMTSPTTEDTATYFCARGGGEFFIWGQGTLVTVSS VL: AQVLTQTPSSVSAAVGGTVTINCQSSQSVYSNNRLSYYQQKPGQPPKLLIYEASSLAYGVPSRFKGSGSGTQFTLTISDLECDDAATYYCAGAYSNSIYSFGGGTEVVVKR
Solution: 0.0957 nM

Exercise: Form field: reported IC50, 0.1 nM PACAP27-induced PAC1-R mediated cAMP increase of anti-PACAP antibody Ab7 (antibody, human IgG1, kappa, N297A, V domains shown, full-length rabbit/human chimeric antibody) VH: QSVEESGGRLVTPGTPLTLTCTASGIDLSGYAMGWVRQAPGKGLEWIGDISTYGTTDYASWVNGRFTISRTSTTVTLKMTSLTTEDTATYFCARDYWLSLWGPGTLVTVSS VL: AAVLTQTPSPVSAAVGGTVTIKCQSSQSVYDNNALAWYQQKPGQPPKLLIYAASTLASGVPSRFKGSGSGTQFTLTINGVQCDDAATYYCLGGYDDPADNAFGGGTEVVVKR
Solution: 0.0458 nM
